- MEASURED_TARGET: NS3h 2a (JFH1)
- ASSAY_COMMENT: NS3 helicase inhibitors across HCV genotypes, late-stage follow-up, selectivity assay for HCV NS3 helicase inhibitor project, biochemical, real-time fluorescence, genotypes 2a and 1b, Set 2 (AID 504419)
- RUN_PARAMETERS: Recombinant NS3 helicase, real-time fluorescence unwinding
Calls of active or inactive are those of the source. How the calls were made is not given here.
Write down the outcome that applies. Available outcomes: active, inactive

What is the recorded call for this compound in the test? `Cc1ccc2nc(-c3ccc4nc(-c5ccc(NC(=O)c6ccc(N(C)C)cc6)cc5)sc4c3)sc2c1S(=O)(=O)O`
active

What did the test return for Cc1cc(N2C(=O)C(O)=C(C(=O)c3ccc(C)o3)C2c2cccc(Cl)c2)no1 (stereo not given) ?
inactive

// outcome(item) with item = COc1c(N2CCN(C(=S)NCc3ccccc3)C(C)C2)c(F)cc2c(=O)c(C(=O)O)cn(C3CC3)c12 (stereo not given)
inactive

In this assay, the call recorded for `O=c1c(O)cccc2cc(O)c(O)c(O)c12` was what?
inactive

What is the recorded call for this compound in the test? `NS(=O)(=O)c1ccc2nc(NC(=O)c3ccc4ncsc4c3)sc2c1`
inactive

Fill in: this test's call for `Cc1ccc(C(=O)Nc2ccc(-c3nc4ccc(-c5nc6ccc(C)c(S(=O)(=O)O)c6s5)cc4s3)cc2)cc1` is ___
active

Fill in: this test's call for `NS(=O)(=O)c1ccc2nc(NC(=O)c3ccc4ncoc4c3)sc2c1` is ___
inactive

Returns: the outcome recorded for Cc1cc(N2C(=O)C(O)=C(C(=O)c3ccc(C)o3)C2c2cc(Cl)cc(Cl)c2)no1 (stereo not given) in this assay.
inactive

Please state the recorded outcome for this compound: `CCN(CC)S(=O)(=O)c1cccc(C(=O)N/N=C/c2ccc(O)c(O)c2O)c1`
inactive

Test call for this compound, please: `Cc1ccc2nc(-c3ccc4nc(-c5ccc(NC(=O)c6ccc(F)cc6)cc5)sc4c3)sc2c1S(=O)(=O)O`
active

Test call, this compound: `Cc1ccc2nc(-c3ccc(NC(=O)c4ccc(F)cc4)cc3)sc2c1S(=O)(=O)O`
inactive

---

- MEASURED_TARGET: NS3h 2a (JFH1)
- ASSAY_COMMENT: NS3 helicase inhibitors across HCV genotypes, late-stage follow-up, selectivity assay for HCV NS3 helicase inhibitor project, biochemical, real-time fluorescence, genotypes 2a and 1b, Set 2 (AID 504419)
- RUN_PARAMETERS: Recombinant NS3 helicase, real-time fluorescence unwinding
The source made the active and inactive calls. The rule behind the calls is not given here.
REPORTED_METRIC: IC50

Sample answers from the record:
CC(C)C(C)(C#N)NC(=O)CSc1nc2scc(-c3ccco3)c2c(=O)n1-c1ccccc1 (stereo not drawn) :: > 100 µM (inactive)
Cc1ccc(C(=O)C2=C(O)C(=O)N(Cc3ccccc3)C2c2cc(Cl)cc(Cl)c2)o1 (stereo not drawn) :: > 100 µM (inactive)
C/C(=N\NC(N)=S)c1cc(-c2ccccc2)c(-c2ccccc2)s1 :: > 100 µM (inactive)
COc1cc(Br)cc(C2C(C(=O)c3ccc(C)o3)=C(O)C(=O)N2Cc2ccccc2)c1OC (stereo not drawn) :: > 100 µM (inactive)

// field: IC50; key: `O=C1OC(c2ccc(F)cc2)=C/C1=C/c1ccc([N+](=O)[O-])o1` ; value = > 100 µM (inactive)
